- System: Mycobacterium smegmatis DSM 43465 (ATCC 607)
- procedure.text: Microdilution broth, modified Microplate Alamar Blue Assay, whole cell growth inhibition
- Assay type: cell-based
- condition.description: Mycolicibacterium smegmatis; in vitro, Middlebrook 7H9 broth, resazurin; read-out: MIC Mycobacterium smegmatis

molecule	MIC
CCCCCNc1cnc(C(=O)Nc2cccc(O)c2)cn1 [Compound 2c]	≥ 500 µg/mL
CCCCCNc1cnc(C(=O)Nc2cc(Cl)ccc2O)cn1 [Compound 7c]	≥ 500 µg/mL
O=C(O)c1cn(C2CC2)c2cc(N3CCNCC3)c(F)cc2c1=O [CPX, ciprofloxacin, reference compound]	0.0625 to 0.125 µg/mL
CCCCCCCNc1cnc(C(=O)Nc2ccc(Cl)cc2O)cn1 [Compound 6e]	≥ 500 µg/mL
CCCCCCNc1cnc(C(=O)Nc2cc(Cl)ccc2O)cn1 [Compound 7d]	≥ 500 µg/mL
CO[C@H]1/C=C/O[C@@]2(C)Oc3c(C)c(O)c4c(O)c(c(/C=N/N5CCN(C)CC5)c(O)c4c3C2=O)NC(=O)/C(C)=C\C=C\[C@H](C)[C@H](O)[C@@H](C)[C@@H](O)[C@@H](C)[C@H](OC(C)=O)[C@@H]1C [RIF, rifampicin, reference compound]	6.25 to 12.5 µg/mL
CCCCCCCCNc1cnc(C(=O)Nc2cc(Cl)ccc2O)cn1 [Compound 7f]	250 µg/mL
NNC(=O)c1ccncc1 [INH, isoniazid, reference compound]	7.81 to 15.6 µg/mL
CCc1ccc(NC(=O)c2cnc(Cl)cn2)cc1 [Compound 5]	≥ 500 µg/mL
CCCCCNc1cnc(C(=O)Nc2ccc(Cl)cc2O)cn1 [Compound 6c]	3.91 µg/mL
CCCCCCNc1cnc(C(=O)Nc2cccc(O)c2)cn1 [Compound 2d]	≥ 500 µg/mL
CCCCCCCCNc1cnc(C(=O)Nc2ccc(CC)cc2)cn1 [Compound 5f]	≥ 250 µg/mL
CCCCCCNc1cnc(C(=O)Nc2ccc(Cl)cc2O)cn1 [Compound 6d]	3.91 µg/mL
CCCNc1cnc(C(=O)Nc2ccc(C)cc2)cn1 [Compound 4a]	31.2 µg/mL
O=C(Nc1ccc(O)cc1)c1cnc(Cl)cn1 [Compound 3]	≥ 250 µg/mL
CCCCCCCCNc1cnc(C(=O)Nc2ccc(O)cc2)cn1 [Compound 3f]	≥ 250 µg/mL
CCCCCNc1cnc(C(=O)Nc2ccc(CC)cc2)cn1 [Compound 5c]	≥ 500 µg/mL
CCCCCCCNc1cnc(C(=O)Nc2cccc(O)c2)cn1 [Compound 2e]	250 µg/mL

meta.source: paper PMC7180572
